Recorded values, source paper PMC5503984.

Measured level at time molar at 0.5 min of individual entries
# PROCEDURE TEXT: Clearance of proET-1 peptides after i.v. bolus in anaesthetised rats
# Format: in vivo, rat
# APPLIED CONDITIONS: rat, iv; anaesthetised male Wistar rats; bolus 1 nmol/kg i.v. of each peptide as a combined solution in 0.9% saline/0.1% BSA; arterial plasma; Luminex multiplex immunoassay; mean ± SD; read-out: plasma level 30 s after injection
Where no end group is shown, it is not given here.
Please answer using a numeric value trailed by its unit.

SEQUENCE RECORD	level at time molar at 0.5 min
SSEEHLRQTRSETMRNSVKSSFHDPKLKGKPSRERYVTHNRAHW [CT-proET-1]	11.7 nM

Dear colleague, I am looking for the recorded level at time molar at 0.5 min of the following sequence: APETAVLGAELSAVGENGGEKPTPSPPWRLRRS [NT-proET-1]
0.29 nM
